system: OVCAR-4 ovarian; test: NCI tumour cell line growth inhibition, 48 h
Each entry below lists one item and its recorded TGI value.

Query: Please give the documented TGI of "Clc1ccc2nc(Oc3ccccc3)cnc2c1"
Response: > 100 µM

----------
system: KM20L2 colon; experiment: NCI tumour cell line growth inhibition, 48 h
measure-name: TGI

Query: Entry "FC(F)(F)c1ccc2nc(Nc3ccc(Cl)c(Cl)c3)c(-c3ccccc3)nc2c1" needs its TGI filled in; supply it.
Response: > 100 µM

Query: Complete the entry with TGI for O=C(Cc1ccccc1)N/N=C(\C1=Nc2ccc([N+](=O)[O-])cc2NC1O)C(O)c1ccc([N+](=O)[O-])cc1 (configuration not stated)
Response: > 100 µM

Query: Determine its reported TGI: "CC(C)[C@@H](COC(C)(C)C)N=CN1CCc2c([nH]c3ccccc23)C1"
Response: > 100 µM

Query: State its TGI: O=C(O)CCC1CCc2cccc3occ1c23 (configuration not stated)
Response: > 100 µM

Query: Check the records and state TGI for "O=C(O)c1cc2c(s1)C(=O)c1sccc1C2=O"
Response: 35.3 µM

Query: Supply measured TGI of "O=C1c2ccccc2C(=O)C1C(c1ccc([N+](=O)[O-])cc1)C1C(=O)c2ccccc2C1=O" in your reply.
Response: > 100 µM

Query: Please report TGI for the following molecule: "CCOC(=O)/C(C#N)=C1\N[C@H](C(=O)OCC)CO1"
Response: > 100 µM

Query: // fetch TGI given entry O=C(Nc1ccc([N+](=O)[O-])cc1)C(=O)C(C(=O)c1ccccc1F)C1OC(=O)c2ccccc21 (configuration not stated)
Response: > 100 µM

Next:
Query: Assign TGI to the following record: "Clc1ccc(CN2COc3c(cc(Cl)c4cccnc34)C2)cc1"
Response: 27.5 µM

Query: Identify measured TGI corresponding to Cc1cccc(C)c1NC(=O)CCCC(=O)C1CCC/C1=N\NC(=O)C(=O)NN (configuration not stated)
Response: > 100 µM

Query: Respond only with TGI recorded for "CC(C)=CC(=O)CC(=O)C(=O)Nc1ccc(Cl)c(Cl)c1"
Response: > 100 µM

Query: Retrieve TGI measured for C=CC12CN(C)C3C4COC(CC41)C1(C(=O)Nc4ccccc41)C32 (configuration not stated) and print it.
Response: > 200 µM

----------
system: UO-31 renal; assay: NCI tumour cell line growth inhibition, 48 h
measure-name: TGI

Query: Could you please provide reported TGI for "COC(=O)[C@@H]1CCCN1C(=O)[C@@H]1CCCN1C(=O)[C@@H](Cc1c[nH]c2ccccc12)NC(=S)Nc1cc(C(F)(F)F)cc(C(F)(F)F)c1" ? Thanks!
Response: > 100 µM

Query: Consider the molecule "COC(=O)c1cc(-c2c[nH]cc2C(=O)OCc2ccccc2)cn1S(=O)(=O)c1ccc(C)cc1" . State its measured TGI.
Response: > 100 µM

Query: For the molecule Cc1ccc(C(=O)C#Cc2cn(C3CC(O)C(CO)O3)c(=O)[nH]c2=O)cc1 (stereo unspecified) , report TGI.
Response: > 100 µM

Query: Identify TGI associated with the molecule "Cc1cc(C)c(C)c(-n2[nH]c(=O)n(C)c2=O)c1C"
Response: > 100 µM

Query: Please report TGI for the following molecule: "Cc1cc(C2(c3cc(C)c(O)c(C(=O)O)c3)OS(=O)(=O)c3ccccc32)cc(C(=O)O)c1O"
Response: > 100 µM

***
Query: Output TGI of CC(Oc1ccc(OCC2CCCCC2)cc1)C(=O)N(CCO)CCO (stereo unspecified)
Response: > 100 µM

Query: Let me know recorded TGI for "c1ccc2c(c1)CCN2CCc1c[nH]c2ccccc12" , thanks.
Response: > 10 µM
